# Tested on: HCV IRES mediated translation
# assayComment: In vitro translation of uncapped HCV-IRES-Luc monocistronic RNA in rabbit reticulocyte lysate
# Format: biochemical, hepatitis C virus
# details: RRL, uncapped HCV IRES-Luc RNA; data not shown; read-out: IC50 for inhibition of HCV IRES mediated translation
valueType: pIC50
Quick note: pIC50 values are minus log10 of concentrations in mol/L.

Lookup: May I ask what pIC50 has been recorded for KYKETDLLILFKDDYFAKKNEERK [LaR2C] ?
Found: 4.52

Measured values drawn from patent US20090233868A1 for this set.
